From: ChEMBL document CHEMBL2069169

Species on record: Homo sapiens
Experiment: Selectivity ratio of IC50 PDE2 to IC50 for human recombinant PDE10A
Measured Endpoint: Ratio IC50

Look at this compound and give its reported Ratio IC50. COc1cc(F)c2nnc3c(C)nc(-c4ccccc4OC)n3c2c1
> 400

Please answer likewise for COc1ccnc2c1nnc1c(C)nc(-c3ccncc3C)n12
> 100

Do the same for COc1ccnc2c1nnc1c(C)nc(-c3cccnc3C)n12 please
> 100

###

Here we list molecules with their recorded IC50 when tested on cGMP-specific 3',5'-cyclic phosphodiesterase (Canis lupus familiaris, UniProt O77746).

Missing value: IC50, cGMP-specific 3',5'-cyclic phosphodiesterase (Canis lupus familiaris, UniProt O77746), entry COc1cc(OC)c2nnc3c(C)nc(-c4ccccc4C(F)(F)F)n3c2c1 . Fill in?
> 1 µM

Input COc1ccnc2c1nnc1c(C)nc(-c3ccncc3C)n12
> 10 µM

How about COc1ccnc2c1nnc1c(C)nc(-c3cccnc3C)n12 ?
> 5 µM

Another molecule: COc1cccc(-c2nc(C)c3nnc4c(OC)cc(F)cc4n23)c1
> 1 µM

Here is the next molecule: COc1ccc2nnc3c(C)nc(-c4ccc(F)cc4Cl)n3c2n1
> 1 µM

Thanks! And COc1cc(F)cc2c1nnc1c(C)nc(-c3cccnc3C)n12 ?
> 5 µM

One more molecule: COc1ccccc1-c1nc(C)c2nnc3c(OC)cc(F)cc3n12
> 10 µM
